# measured on: T1, human DLL4, full length, overexpressed on cells (human, UniProt Q9NR61 27-685)
# T1 construct: CHO cells in FMAT, HEK293 cells in the reporter assay; also called hDLL4; CHO-hDLL4
# experiment description: FMAT, hNotch1-Fc on CHO-hDLL4, -HSA
# IC50 per entry
measured endpoint: IC50 (nM)

{"columns": ["binder", "measure unit", "reported result"],
 "data": [
  ["VEGFDLLBII012 (bispecific antibody, PEGylated at the Cys at position 15 of the 35 Gly-Ser linker, VEGFBII23B04 - 35GS(Cys15) - DLLBII136C07) EVQLVESGGGLVQTGDSLRLSCEVSGRTFSSYSMGWFRQAQGKEREFVVAISKGGYKYDSVSLEGRFTISKDNAKNTVYLQINSLKPEDTAVYYCASSRAYGSSRLRLADTYEYWGQGTQVTVSSGGGGSGGGGSGGGGCGGGGSGGGGSGGGGSGGGGSEVQLVESGGGLVQPGGSLRLSCAASGFTFGSYDMSWVRRSPGKGPEWVSSINSGGGSTYYADYVKGRFTISRDNAKNTLYLQMNSLKPEDTAVYYCAADRYIWARQGEYWGAYEYDYWGQGTQVTVSS", "nM", 44.9],
  ["DLLBII129B05 (VHH, not shown: small tags and cut ends) VHH: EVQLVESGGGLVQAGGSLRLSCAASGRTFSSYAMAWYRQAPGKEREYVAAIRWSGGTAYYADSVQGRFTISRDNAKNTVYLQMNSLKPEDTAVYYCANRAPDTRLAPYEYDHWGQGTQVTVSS", "nM", 3.2],
  ["DLLBII136C07 (VHH, not shown: small tags and cut ends) VHH: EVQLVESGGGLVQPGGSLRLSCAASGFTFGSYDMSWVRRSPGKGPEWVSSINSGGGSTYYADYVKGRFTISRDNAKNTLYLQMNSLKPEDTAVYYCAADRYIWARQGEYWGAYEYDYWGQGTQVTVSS", "nM", 6.8],
  ["VEGFDLLBII013 (bispecific antibody, PEGylated at the Cys at position 15 of the 35 Gly-Ser linker, VEGFBII23B04 - 35GS(Cys15) - DLLBII129B05) EVQLVESGGGLVQTGDSLRLSCEVSGRTFSSYSMGWFRQAQGKEREFVVAISKGGYKYDSVSLEGRFTISKDNAKNTVYLQINSLKPEDTAVYYCASSRAYGSSRLRLADTYEYWGQGTQVTVSSGGGGSGGGGSGGGGCGGGGSGGGGSGGGGSGGGGSEVQLVESGGGLVQAGGSLRLSCAASGRTFSSYAMAWYRQAPGKEREYVAAIRWSGGTAYYADSVQGRFTISRDNAKNTVYLQMNSLKPEDTAVYYCANRAPDTRLAPYEYDHWGQGTQVTVSS", "nM", 12.2]
]}
